Overview of recorded one-hybrid fitness for binding parS DNA for various variants
B1: Caulobacter ParB omega fusion; a variant is named by its letters at X, in order, B8GW30 (parent)
chain: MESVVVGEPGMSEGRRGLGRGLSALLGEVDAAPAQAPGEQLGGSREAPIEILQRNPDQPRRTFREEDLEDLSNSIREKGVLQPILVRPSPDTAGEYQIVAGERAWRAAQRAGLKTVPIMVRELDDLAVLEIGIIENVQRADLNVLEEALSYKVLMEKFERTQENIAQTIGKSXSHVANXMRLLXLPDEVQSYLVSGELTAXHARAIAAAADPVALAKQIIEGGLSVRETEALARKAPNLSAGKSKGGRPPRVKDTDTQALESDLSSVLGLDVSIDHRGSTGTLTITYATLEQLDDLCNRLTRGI

Variants of: B1
Test: one-hybrid fitness for binding parS DNA (scaled: cognate 1, non-cognate 0); higher = stronger binding
Conditions: with parS DNA site
Over roughly 81,000 sequences, “one-hybrid fitness for binding parS DNA” has its median near -0.17; the highest 2% begin near 0.51. The entries come from a sample that favours the highest values as a whole.

These solved cases illustrate the format of a correct answer.
PVGY    ≤ 0.2
RRPK    ≤ 0.2
GQNG    ≤ 0.2
DFTG    ≤ 0.2
NFYC    ≤ 0.2
RVEP    ≤ 0.2
RVEM    0.231
IKKF    ≤ 0.2

Now examine the next entry.
Request: Recorded one-hybrid fitness for binding parS DNA for QDYV , please?
Response: ≤ 0.2
